Experiment: MRT (0 to infinity) in male Balb/c mouse at 2 mg/kg, iv measured upto 24 hrs by LC-MS/MS analysis
Type: ADME, organism-based
Settings: in vivo

# compound, MRT inf
records = [
    ("COc1ccccc1CCNCC(O)c1ccc(O)c2c1OCC(=O)N2.Cl (stereo unspecified)", "3.43 h"),
]

---

Listed below: pEC50 values for each entry.
Target: Beta-1 adrenergic receptor (Homo sapiens)
Sequence (P08588 whole entry): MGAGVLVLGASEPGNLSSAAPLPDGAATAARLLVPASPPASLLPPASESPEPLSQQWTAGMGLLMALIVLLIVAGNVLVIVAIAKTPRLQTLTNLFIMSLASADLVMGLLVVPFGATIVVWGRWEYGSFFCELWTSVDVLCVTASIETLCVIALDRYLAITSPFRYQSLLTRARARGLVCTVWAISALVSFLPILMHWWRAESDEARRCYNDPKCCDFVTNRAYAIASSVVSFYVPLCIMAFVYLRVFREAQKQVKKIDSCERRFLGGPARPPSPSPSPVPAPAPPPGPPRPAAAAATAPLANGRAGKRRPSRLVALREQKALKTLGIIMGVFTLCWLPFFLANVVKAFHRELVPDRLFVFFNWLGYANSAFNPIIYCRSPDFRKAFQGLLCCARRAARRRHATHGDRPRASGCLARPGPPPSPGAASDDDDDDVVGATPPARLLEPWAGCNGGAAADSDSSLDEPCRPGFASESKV
pEC50: −log10 of the molar value.

# compound, pEC50
records = [
    ("O=C1COc2c(C(O)CNCCCc3ccc(C(F)(F)F)cc3)ccc(O)c2N1 (stereo unspecified)", 8.92),
    ("O=C1COc2c(C(O)CNCCc3ccc(Cl)cc3)ccc(O)c2N1 (stereo unspecified)", 6.00),
    ("O=C1COc2c(C(O)CNCCc3ccc(F)cc3)ccc(O)c2N1 (stereo unspecified)", 8.43),
    ("Cc1ccccc1CCCNCC(O)c1ccc(O)c2c1OCC(=O)N2 (stereo unspecified)", 9.49),
    ("O=C1COc2c(C(O)CNCCCc3ccccc3)ccc(O)c2N1 (stereo unspecified)", 9.59),
    ("O=C1COc2c(C(O)CNCCCc3ccc(F)cc3)ccc(O)c2N1 (stereo unspecified)", 9.61),
]
